Listing: growth inhibition of selected compounds
- assayRemarks: NCI Yeast Anticancer Drug Screen. Data for the mlh1 rad18 strain (AID 175)
- details: S. cerevisiae mlh1 rad18 strain growth inhibition; at 5.0 µM (retest, dose inferred, filed as 0.5); active compounds read high
Compounds without any hit were thinned out: in the full panel of roughly 79,000, 15% have a hit.
Reply numerically in %, unit not repeated.

Documented growth inhibition of CCOC(=O)N/N=C/c1ccc([N+](=O)[O-])o1 : 17

Documented growth inhibition of Clc1nnc(Cl)s1 : 5

Documented growth inhibition of C[CH2][Sn]([CH2]C)([O]C(=O)c1ccccc1OC)[O][Sn]([CH2]C)([CH2]C)[O]C(=O)c1ccccc1OC : 38

Documented growth inhibition of CCN(CC)CCOC(=O)Nc1cc(Cl)cc(Cl)c1 : 59
